- testSummary: Phase I study CXR1002-001: plasma pharmacokinetics (LC-MS/MS)
- Type: in vivo, human
- conditionSet: human, plasma, oral, 600 mg, Patient 021, 600 mg, person, plasma, 842 hr; read-out: Concentration
- Description: PK samples, PD (fasting) samples, blood glucose, and blood triglyceride samples, were taken over a 6-week period. Dose limiting toxicity (DLT) will be based on the toxicity assessments over the first 3-week period of the repeat dosing schedule. […]
measurementKind: concentration at 842 h (µM)
Give just the numeric value; µM need not be written.

# return recorded concentration at 842 h for input `O=C(O)C(F)(F)C(F)(F)C(F)(F)C(F)(F)C(F)(F)C(F)(F)C(F)(F)F`
968

---

- testSummary: Phase I study CXR1002-001: plasma pharmacokinetics (LC-MS/MS)
- Assay type: in vivo, human
- conditionSet: human, plasma, oral, 100 mg, Patient 005 Dose 100 mg; 0 hr
measurementKind: concentration at 0 h (nM)
Give just the numeric value; nM need not be written.

# return recorded concentration at 0 h for input O=C(O)C(F)(F)C(F)(F)C(F)(F)C(F)(F)C(F)(F)C(F)(F)C(F)(F)F [CXR1002]
230

---

- testSummary: Phase I study CXR1002-001: plasma pharmacokinetics (LC-MS/MS)
- Type: in vivo, human
- conditionSet: human, plasma, oral, 100 mg, Patient 007 Dose 100 mg; 339 hr; read-out: Concentration
measurementKind: concentration at 339 hr (µM)
Give just the numeric value; µM need not be written.

# return recorded concentration at 339 hr for input O=C(O)C(F)(F)C(F)(F)C(F)(F)C(F)(F)C(F)(F)C(F)(F)C(F)(F)F [CXR1002]
53.1

---

- testSummary: Phase I study CXR1002-001: plasma pharmacokinetics (LC-MS/MS)
- Type: in vivo, human
- conditionSet: human, plasma, oral, 600 mg, Patient 024, 600 mg, person, plasma, 24 hr (Day 2); read-out: Concentration
measurementKind: concentration at 24 h (µM)
Give just the numeric value; µM need not be written.

# return recorded concentration at 24 h for input `O=C(O)C(F)(F)C(F)(F)C(F)(F)C(F)(F)C(F)(F)C(F)(F)C(F)(F)F`
258

---

- testSummary: Phase I study CXR1002-001: plasma pharmacokinetics (LC-MS/MS)
- Type: in vivo, human
- conditionSet: human, plasma, oral, 300 mg, Patient 011 Dose 300 mg; 696 hr (Day 30); read-out: Concentration
measurementKind: concentration at 696 h (µM)
Give just the numeric value; µM need not be written.

# return recorded concentration at 696 h for input `O=C(O)C(F)(F)C(F)(F)C(F)(F)C(F)(F)C(F)(F)C(F)(F)C(F)(F)F`
326

---

- testSummary: Phase I study CXR1002-001: plasma pharmacokinetics (LC-MS/MS)
- Type: in vivo, human
- conditionSet: human, plasma, oral, 450 mg, Patient 016 Dose 450 mg; 676 hr; read-out: Concentration
measurementKind: concentration at 676 h (µM)
Give just the numeric value; µM need not be written.

# return recorded concentration at 676 h for input `O=C(O)C(F)(F)C(F)(F)C(F)(F)C(F)(F)C(F)(F)C(F)(F)C(F)(F)F`
732

---

- testSummary: Phase I study CXR1002-001: plasma pharmacokinetics (LC-MS/MS)
- Format: in vivo, human
- conditionSet: female, human, plasma, oral, Female, plasma, 864 hr (Day 37); read-out: Concentration
measurementKind: concentration at 864 h

# return recorded concentration at 864 h for input O=C(O)C(F)(F)C(F)(F)C(F)(F)C(F)(F)C(F)(F)C(F)(F)C(F)(F)F [CXR1002]
526 µM

---

- testSummary: Phase I study CXR1002-001: plasma pharmacokinetics (LC-MS/MS)
- Type: in vivo, human
- conditionSet: human, plasma, oral, 600 mg, Patient 021, 600 mg, person, plasma, 192 hr (Day 9); read-out: Concentration
measurementKind: concentration at 192 h (µM)
Give just the numeric value; µM need not be written.

# return recorded concentration at 192 h for input `O=C(O)C(F)(F)C(F)(F)C(F)(F)C(F)(F)C(F)(F)C(F)(F)C(F)(F)F`
479

---

- testSummary: Phase I study CXR1002-001: plasma pharmacokinetics (LC-MS/MS)
- Format: in vivo, human
- conditionSet: human, plasma, oral, 200 mg, Patient 009 Dose 200 mg; Week 19
measurementKind: concentration at 19 week (µM)
Give just the numeric value; µM need not be written.

# return recorded concentration at 19 week for input `O=C(O)C(F)(F)C(F)(F)C(F)(F)C(F)(F)C(F)(F)C(F)(F)C(F)(F)F`
618

---

- testSummary: Phase I study CXR1002-001: plasma pharmacokinetics (LC-MS/MS)
- Type: in vivo, human
- conditionSet: human, plasma, oral, 50 mg, Patient 003 Dose 50 mg; 1.5 hr
measurementKind: concentration at 1.5 h (µM)
Give just the numeric value; µM need not be written.

# return recorded concentration at 1.5 h for input `O=C(O)C(F)(F)C(F)(F)C(F)(F)C(F)(F)C(F)(F)C(F)(F)C(F)(F)F`
24.6

---

- testSummary: Phase I study CXR1002-001: plasma pharmacokinetics (LC-MS/MS)
- Format: in vivo, human
- conditionSet: human, plasma, oral, 100 mg, Patient 006 Dose 100 mg; 864 hr (Day 37); read-out: Concentration
measurementKind: concentration at 864 hr (µM)
Give just the numeric value; µM need not be written.

# return recorded concentration at 864 hr for input `O=C(O)C(F)(F)C(F)(F)C(F)(F)C(F)(F)C(F)(F)C(F)(F)C(F)(F)F`
123

---

- testSummary: Phase I study CXR1002-001: plasma pharmacokinetics (LC-MS/MS)
- Assay type: in vivo, human
- conditionSet: human, plasma, oral, 200 mg, Patient 009 Dose 200 mg; 172 hr; read-out: Concentration
measurementKind: concentration at 172 h (µM)
Give just the numeric value; µM need not be written.

# return recorded concentration at 172 h for input `O=C(O)C(F)(F)C(F)(F)C(F)(F)C(F)(F)C(F)(F)C(F)(F)C(F)(F)F`
139

---

- testSummary: Phase I study CXR1002-001: plasma pharmacokinetics (LC-MS/MS)
- Type: in vivo, human
- conditionSet: human, plasma, oral, 450 mg, Patient 016 Dose 450 mg; 171 hr; read-out: Concentration
measurementKind: concentration at 171 h (µM)
Give just the numeric value; µM need not be written.

# return recorded concentration at 171 h for input O=C(O)C(F)(F)C(F)(F)C(F)(F)C(F)(F)C(F)(F)C(F)(F)C(F)(F)F [CXR1002]
255

---

- testSummary: Phase I study CXR1002-001: plasma pharmacokinetics (LC-MS/MS)
- Format: in vivo, human
- conditionSet: human, plasma, oral, 200 mg, Patient 009 Dose 200 mg; 339 hr; read-out: Concentration
measurementKind: concentration at 339 h (µM)
Give just the numeric value; µM need not be written.

# return recorded concentration at 339 h for input `O=C(O)C(F)(F)C(F)(F)C(F)(F)C(F)(F)C(F)(F)C(F)(F)C(F)(F)F`
167

---

- testSummary: Phase I study CXR1002-001: plasma pharmacokinetics (LC-MS/MS)
- Format: in vivo, human
- conditionSet: human, plasma, oral, 750 mg, Patient 028, 750 mg, person, plasma, 864 hr (Day 37); read-out: Concentration
measurementKind: concentration at 864 h (µM)
Give just the numeric value; µM need not be written.

# return recorded concentration at 864 h for input `O=C(O)C(F)(F)C(F)(F)C(F)(F)C(F)(F)C(F)(F)C(F)(F)C(F)(F)F`
775

---

- testSummary: Phase I study CXR1002-001: plasma pharmacokinetics (LC-MS/MS)
- Format: in vivo, human
- conditionSet: human, plasma, oral, 600 mg, Patient 021, 600 mg, person, plasma, 504 hr (Day 22); read-out: Concentration
measurementKind: concentration at 504 h (µM)
Give just the numeric value; µM need not be written.

# return recorded concentration at 504 h for input `O=C(O)C(F)(F)C(F)(F)C(F)(F)C(F)(F)C(F)(F)C(F)(F)C(F)(F)F`
605

---

- testSummary: Phase I study CXR1002-001: plasma pharmacokinetics (LC-MS/MS)
- Assay type: in vivo, human
- conditionSet: human, plasma, po, 1200 mg, Patient 038, 1200 mg weekly oral dose, Time 507 hr; read-out: Concentration (plasma level)
- Excerpt: PK samples, PD (fasting) samples, blood glucose, and blood triglyceride samples, were taken over a 6-week period. Dose limiting toxicity (DLT) will be based on the toxicity assessments over the first 3-week period of the repeat dosing schedule. […]
measurementKind: concentration at 507 h (µM)
Give just the numeric value; µM need not be written.

# return recorded concentration at 507 h for input `O=C(O)C(F)(F)C(F)(F)C(F)(F)C(F)(F)C(F)(F)C(F)(F)C(F)(F)F`
788
